Assay: Physical stability under accelerated aging conditions (AAC), HT-XRPD
Settings: 40° C./75% RH, 2 days (48 hours), HT-XRPD
parameterMeasured: Form after AAC

compound	reported
CC1(C)[C@@H]2CC[C@@]1(CS(=O)(=O)O)C(=O)C2.CN1CCN(Cc2ccc(-c3cnc(N4CCOC(Cn5nnc6ncc(-c7cnn(C)c7)nc65)C4)nc3)cc2)CC1 (stereo in doubt) [Camp2]	Camp2
CN1CCN(Cc2ccc(-c3cnc(N4CCOC(Cn5nnc6ncc(-c7cnn(C)c7)nc65)C4)nc3)cc2)CC1.CS(=O)(=O)O.CS(=O)(=O)O (centres unmarked)	Mes2
CN1CCN(Cc2ccc(-c3cnc(N4CCOC(Cn5nnc6ncc(-c7cnn(C)c7)nc65)C4)nc3)cc2)CC1.CS(=O)(=O)O (centres unmarked)	Mes1
CC1(C)[C@@H]2CC[C@@]1(CS(=O)(=O)O)C(=O)C2.CN1CCN(Cc2ccc(-c3cnc(N4CCOC(Cn5nnc6ncc(-c7cnn(C)c7)nc65)C4)nc3)cc2)CC1 (centres unmarked) [Camp1]	Camp1
